// PARP7 (Homo sapiens, UniProt Q7Z3E1) IC50 records

>  <molecule>
Cc1c(Oc2cccc(C(=O)N3CCN(c4ncc(C(F)(F)F)s4)CC3)c2)n[nH]c(=O)c1C(F)(F)F

>  <IC50>
< 100 nM

$$$$
>  <molecule>
O=C(CC1CN(c2cc(C(F)(F)F)c(=O)[nH]n2)c2cc(C(=O)N3CCC3)ccc2O1)N1CCN(c2ncc(C(F)(F)F)cn2)CC1 (single isomer, unassigned)

>  <IC50>
< 100 nM

$$$$
>  <molecule>
O=C(CC1CN(c2cc(C(F)(F)F)c(=O)[nH]n2)c2ccccc2O1)N1CCN(c2ncc(Cl)cn2)CC1 (single isomer, unassigned)

>  <IC50>
100 to 1000 nM

$$$$
>  <molecule>
N#Cc1ccc2c(c1)N(c1cc(C(F)(F)F)c(=O)[nH]n1)CC(CC(=O)N1CCN(c3ncc(C(F)(F)F)cn3)CC1)O2 (single isomer, unassigned)

>  <IC50>
< 100 nM

$$$$
>  <molecule>
O=C(CO[C@@H]1CCNc2c1n[nH]c(=O)c2C(F)(F)F)N1CCN(c2ncc(C(F)(F)F)cn2)CC1 (single isomer, unassigned)

>  <IC50>
< 100 nM

$$$$
>  <molecule>
N#Cc1ccc(N2CCN(C(=O)CC3CN(c4cc(C(F)(F)F)c(=O)[nH]n4)c4cc(C#N)ccc4O3)CC2)nc1 (single isomer, unassigned) [Compound 230]

>  <IC50>
100 to 1000 nM

$$$$
>  <molecule>
COCCNC(=O)c1ccc2c(c1)N(c1cc(C(F)(F)F)c(=O)[nH]n1)CC(CC(=O)N1CCN(c3ncc(C(F)(F)F)cn3)CC1)O2 (single isomer, unassigned)

>  <IC50>
< 100 nM

$$$$
>  <molecule>
Cn1ccc2c(=O)[nH]nc(Oc3cccc(C(=O)N4CCN(c5ncc(C(F)(F)F)cn5)CC4)c3)c21

>  <IC50>
< 100 nM

$$$$
>  <molecule>
Cc1c(N2C[C@@H](CC(=O)N3CCN(c4ncc(C(F)(F)F)cn4)CC3)O[C@@H](C)C2)n[nH]c(=O)c1C(F)(F)F (stereo in doubt)

>  <IC50>
< 100 nM

$$$$
>  <molecule>
C[C@@H]1CN(c2cc(C(F)(F)F)c(=O)[nH]n2)C[C@@H](CC(=O)N2CCN(c3ncc(C(F)(F)F)cn3)CC2)O1 (stereo in doubt)

>  <IC50>
< 100 nM

$$$$
>  <molecule>
O=C(CC1CN(c2n[nH]c(=O)c3ccc(F)cc23)CCO1)N1CCN(c2ncc(C(F)(F)F)cn2)CC1 (single isomer, unassigned)

>  <IC50>
< 100 nM

$$$$
>  <molecule>
N#Cc1cnc(N2CCN(C(=O)CC3CN(c4cc(C(F)(F)F)c(=O)[nH]n4)c4ccccc4O3)CC2)nc1 (single isomer, unassigned) [Compound 250]

>  <IC50>
< 100 nM

$$$$

----------
// PARP7 (Homo sapiens) IC50 records
observed_property: IC50

>  <compound>
COC1CN(c2c(Oc3cncc(C(=O)N4CCN(c5ncc(C(F)(F)F)cn5)CC4)c3)n[nH]c(=O)c2C(F)(F)F)C1

>  <observed_property>
IC50

>  <result>
< 100 nM

$$$$
>  <compound>
O=C(c1cccc(Oc2n[nH]c(=O)c(C(F)(F)F)c2N2CC3(CCC3)C2)c1)N1CCN(c2ncc(C3CC3)cn2)CC1

>  <observed_property>
IC50

>  <result>
< 100 nM

$$$$
>  <compound>
O=C(c1cncc(Oc2n[nH]c(=O)c(C(F)(F)F)c2N2CC3(C2)CC(F)(F)C3)c1)N1CCN(c2cnc(C(F)(F)F)cn2)CC1

>  <observed_property>
IC50

>  <result>
< 100 nM

$$$$
>  <compound>
O=C(C[C@@H]1CN(c2n[nH]c(=O)c3ccc(N4CC(F)C4)cc23)CCO1)N1CCN(c2ncc(C(F)(F)F)cn2)CC1

>  <observed_property>
IC50

>  <result>
< 100 nM

$$$$
>  <compound>
O=C(c1cccc(Oc2n[nH]c(=O)c(C(F)(F)F)c2N2CC3(CCC3)C2)c1)N1CCN(c2ccc(Cl)cn2)CC1

>  <observed_property>
IC50

>  <result>
< 100 nM

$$$$
>  <compound>
O=C(c1cccc(Oc2n[nH]c(=O)c(C(F)(F)F)c2C2CC2)c1)N1CCN(c2ncc(C(F)(F)F)cn2)CC1

>  <observed_property>
IC50

>  <result>
< 100 nM

$$$$
>  <compound>
C[C@@H]1CN(C(=O)c2cc(Oc3n[nH]c(=O)c(C(F)(F)F)c3N3CC(O)C3)ccn2)CCN1c1ncc(C(F)(F)F)cn1

>  <observed_property>
IC50

>  <result>
< 100 nM

$$$$
>  <compound>
O=C(CC1CN(c2n[nH]c(=O)c3cc(OCC(F)F)ccc23)CCO1)N1CCN(c2ncc(C(F)(F)F)cn2)CC1 (single isomer, unassigned)

>  <observed_property>
IC50

>  <result>
> 1000 nM

$$$$
>  <compound>
CC(C)(O)c1cnc(N2CCN(C(=O)CC3CN(c4cc(C(F)(F)F)c(=O)[nH]n4)c4cc(F)ccc4O3)CC2)nc1 (single isomer, unassigned)

>  <observed_property>
IC50

>  <result>
< 100 nM

$$$$
>  <compound>
C[C@H]1CN(c2n[nH]c(=O)c3cccc(F)c23)C[C@H](CC(=O)N2CCN(c3ncc(C(F)(F)F)cn3)CC2)O1 (stereo in doubt)

>  <observed_property>
IC50

>  <result>
100 to 1000 nM

$$$$
>  <compound>
O=C(CC1CN(c2cc(C(F)(F)F)c(=O)[nH]n2)CCC1(F)F)N1CCN(c2ncc(C(F)(F)F)cn2)CC1 (single isomer, unassigned)

>  <observed_property>
IC50

>  <result>
< 100 nM

$$$$
>  <compound>
CO[C@H]1C[C@H](Nc2c(Oc3cccc(C(=O)N4CCN(c5ncc(C(F)(F)F)cn5)CC4)c3)n[nH]c(=O)c2C(F)(F)F)C1

>  <observed_property>
IC50

>  <result>
< 100 nM

$$$$

----------
Target chain: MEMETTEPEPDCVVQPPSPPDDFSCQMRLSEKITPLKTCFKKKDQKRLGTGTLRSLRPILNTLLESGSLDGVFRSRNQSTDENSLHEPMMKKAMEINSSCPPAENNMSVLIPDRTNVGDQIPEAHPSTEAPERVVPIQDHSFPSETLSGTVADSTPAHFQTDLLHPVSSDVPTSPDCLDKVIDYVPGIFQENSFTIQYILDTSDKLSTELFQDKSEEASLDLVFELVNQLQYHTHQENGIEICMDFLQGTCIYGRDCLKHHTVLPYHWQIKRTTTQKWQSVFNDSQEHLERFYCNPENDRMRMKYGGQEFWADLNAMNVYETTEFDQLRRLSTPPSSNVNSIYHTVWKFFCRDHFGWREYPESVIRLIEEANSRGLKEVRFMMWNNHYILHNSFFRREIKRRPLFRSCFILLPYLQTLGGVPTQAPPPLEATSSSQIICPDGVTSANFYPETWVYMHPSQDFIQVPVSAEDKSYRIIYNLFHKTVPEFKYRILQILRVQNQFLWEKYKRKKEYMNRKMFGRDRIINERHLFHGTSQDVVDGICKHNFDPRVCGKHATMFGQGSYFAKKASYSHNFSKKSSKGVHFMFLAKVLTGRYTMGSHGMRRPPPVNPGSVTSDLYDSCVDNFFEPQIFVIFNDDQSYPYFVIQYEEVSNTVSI
observed_property: IC50

>  <compound>
CNC1CN(c2c(Oc3cccc(C(=O)N4CCN(c5ncc(C(F)(F)F)cn5)CC4)c3)n[nH]c(=O)c2C(F)(F)F)C1

>  <observed_property>
IC50

>  <result>
< 100 nM

$$$$
>  <compound>
N#Cc1ccc(N2CCN(C(=O)CC3CN(c4cc(C(F)(F)F)c(=O)[nH]n4)c4ccccc4O3)CC2)nc1 (single isomer, unassigned)

>  <observed_property>
IC50

>  <result>
< 100 nM

$$$$
>  <compound>
O=C(COC1CCOc2c1n[nH]c(=O)c2C(F)(F)F)N1CCN(c2ncc(C(F)(F)F)cn2)CC1 (single isomer, unassigned)

>  <observed_property>
IC50

>  <result>
< 100 nM

$$$$
>  <compound>
O=C(CC1CN(c2n[nH]c(=O)c3ccc(Cl)cc23)CCO1)N1CCN(c2ncc(C(F)(F)F)cn2)CC1 (single isomer, unassigned)

>  <observed_property>
IC50

>  <result>
100 to 1000 nM

$$$$
>  <compound>
O=C(CC1CN(c2cc(C(F)(F)F)c(=O)[nH]n2)c2ccccc2O1)N1CCn2c(nnc2C(F)(F)F)C1 (single isomer, unassigned)

>  <observed_property>
IC50

>  <result>
> 1000 nM

$$$$
>  <compound>
N#Cc1ccc2c(c1)N(c1cc(C(F)(F)F)c(=O)[nH]n1)CC(CC(=O)N1CCN(c3ncc(C(F)F)cn3)CC1)O2 (single isomer, unassigned)

>  <observed_property>
IC50

>  <result>
< 100 nM

$$$$
>  <compound>
Cc1c(N2CCOC(CC(=O)N3CCN(c4ncc(C(F)(F)F)cn4)CC3)C2)n[nH]c(=O)c1C(F)(F)F (single isomer, unassigned)

>  <observed_property>
IC50

>  <result>
< 100 nM

$$$$
>  <compound>
C#Cc1cc(N2CCOC(CC(=O)N3CCN(c4ncc(C(F)(F)F)cn4)CC3)C2)n[nH]c1=O (single isomer, unassigned)

>  <observed_property>
IC50

>  <result>
100 to 1000 nM

$$$$
>  <compound>
C#Cc1cnc(N2CCN(C(=O)c3cccc(Oc4n[nH]c(=O)c(C(F)(F)F)c4N4CC5(CCCO5)C4)c3)CC2)nc1

>  <observed_property>
IC50

>  <result>
< 100 nM

$$$$
>  <compound>
C[C@@H]1CN(c2n[nH]c(=O)c3cccc(F)c23)C[C@H](CC(=O)N2CCN(c3ncc(C(F)(F)F)cn3)CC2)O1 (stereo in doubt)

>  <observed_property>
IC50

>  <result>
> 1000 nM

$$$$
>  <compound>
CN1CC[C@H](OCC(=O)N2CCN(c3ncc(C(F)(F)F)cn3)CC2)c2n[nH]c(=O)c(C(F)(F)F)c21 (single isomer, unassigned)

>  <observed_property>
IC50

>  <result>
100 to 1000 nM

$$$$
>  <compound>
N#Cc1cnc(N2CCN(C(=O)c3cc(Oc4n[nH]c(=O)c(C(F)(F)F)c4N4CC5(C4)CC(F)(F)C5)ccn3)CC2)nc1

>  <observed_property>
IC50

>  <result>
< 100 nM

$$$$

Entry source: patent US20240343727A1
